Reported values of %-inhibition, CaMK1α for individual entries
target: panel of more than 300 wild-type and mutant kinases (313 kinase panel) (Homo sapiens, UniProt Q14012); assay: Kinase profiling in a biochemical assay panel (mobility shift assays and ELISA), %-inhibition at 1 μM; selectivity entropy; conditions: kinase CaMK1α; 1 μM compound
Give a bare numeral; the unit % is implied.

Worked examples, 5 compounds total:
>>> recorded_number("COc1cc2nccc(Oc3ccc(NC(=O)C4(C(=O)Nc5ccc(F)cc5)CC4)cc3)c2cc1OC [cabozantinib]")
-0.897
>>> recorded_number("CC(=O)Nc1cccc(-n2c(=O)n(C3CC3)c(=O)c3c(Nc4ccc(I)cc4F)n(C)c(=O)c(C)c32)c1")
-2
>>> recorded_number("Cc1nc(Nc2ncc(C(=O)Nc3c(C)cccc3Cl)s2)cc(N2CCN(CCO)CC2)n1")
1.38
>>> recorded_number("CNC(=O)c1cc(Oc2ccc(NC(=O)Nc3ccc(Cl)c(C(F)(F)F)c3)c(F)c2)ccn1")
-6
>>> recorded_number("Cc1ccc(Nc2nccc(N(C)c3ccc4c(C)n(C)nc4c3)n2)cc1S(N)(=O)=O")
5.59

// query Given the compound CCCS(=O)(=O)Nc1ccc(F)c(C(=O)c2c[nH]c3ncc(-c4ccc(Cl)cc4)cc23)c1F , what is its reported %-inhibition, CaMK1α?
// result -3.18

// query Endpoint output: %-inhibition, CaMK1α of CS(=O)(=O)CCNCc1ccc(-c2ccc3ncnc(Nc4ccc(OCc5cccc(F)c5)c(Cl)c4)c3c2)o1 . Value?
// result 8

// query Returns the measured %-inhibition, CaMK1α for the input compound. Input: COc1cc2c(Nc3ccc(Br)cc3F)ncnc2cc1OCC1CCN(C)CC1
// result -3
